Ref: patent US11667602B2

# test_target: UniProt Q9HBX9
# Sequence (Q9HBX9 whole entry): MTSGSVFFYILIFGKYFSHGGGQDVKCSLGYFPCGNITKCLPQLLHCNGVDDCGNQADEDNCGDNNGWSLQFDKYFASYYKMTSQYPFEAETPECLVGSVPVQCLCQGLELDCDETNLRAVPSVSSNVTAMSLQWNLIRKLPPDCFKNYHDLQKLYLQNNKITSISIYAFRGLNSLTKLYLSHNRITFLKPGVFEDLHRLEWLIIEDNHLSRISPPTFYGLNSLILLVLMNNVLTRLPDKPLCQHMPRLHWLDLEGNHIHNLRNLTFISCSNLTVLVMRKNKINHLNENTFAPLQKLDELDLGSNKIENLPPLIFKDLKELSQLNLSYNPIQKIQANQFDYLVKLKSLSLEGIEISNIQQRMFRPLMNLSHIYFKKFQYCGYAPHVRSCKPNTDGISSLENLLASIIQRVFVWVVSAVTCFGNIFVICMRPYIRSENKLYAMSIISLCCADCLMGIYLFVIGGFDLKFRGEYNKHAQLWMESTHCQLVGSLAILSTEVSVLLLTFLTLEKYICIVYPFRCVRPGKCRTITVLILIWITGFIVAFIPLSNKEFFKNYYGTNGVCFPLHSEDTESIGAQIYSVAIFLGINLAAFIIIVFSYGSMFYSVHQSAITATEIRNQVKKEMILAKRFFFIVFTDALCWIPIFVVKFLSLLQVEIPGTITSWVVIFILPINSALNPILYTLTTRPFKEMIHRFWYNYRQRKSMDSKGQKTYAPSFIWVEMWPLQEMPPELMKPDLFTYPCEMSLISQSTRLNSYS
# test_method_notes: RXFP1 Hu cAMP (Test A)
# Type: cell-based
# Set-up: expressed in transfected cells; host or cells: Jump-In T-REx CHO-K1 cells (ThermoFisher), induced with 10 ng/ml doxycycline for 24 h
# condition_description: RXFP1 Hu cAMP; read-out: Test A EC50
Item-by-item account of pEC50
Please report pEC50 as the negative decimal logarithm of the molar concentration, giving only the number.

compound="COc1cc(F)c(-c2ccnc(C(=O)O)c2)cc1C(=O)N[C@H]1[C@@H](C(=O)Nc2cccc(S(=O)(=O)C(F)(F)F)c2)[C@@H]2C=C[C@H]1C2 (racemic)" number=5.31
compound=COc1cc(F)c(O[C@H]2CC[C@@](O)(C(=O)O)CC2)cc1C(=O)N[C@@H]1[C@H]2CC[C@H](C2)[C@@H]1C(=O)NCC1(C)CCC1 number=6.27
compound=CC1(CNC(=O)[C@H]2[C@@H]3CC[C@@H](C3)[C@H]2NC(=O)c2cc(O[C@H]3CC[C@@](C)(C(=O)O)CC3)c(F)cc2Cl)CCC1 number=6.89
compound=COc1cc(F)c(-c2ccc(OC(C)(C)C(=O)O)cc2)cc1C(=O)N[C@@H]1[C@H]2CC[C@H](C2)[C@@H]1C(=O)Nc1cccc(S(=O)(=O)C(F)(F)F)c1 number=6.60
compound="COc1cc(F)c(-c2cnc(C(=O)O)cn2)cc1C(=O)N[C@H]1[C@@H](C(=O)Nc2cccc(S(=O)(=O)C(F)(F)F)c2)[C@@H]2C=C[C@H]1C2 (racemic)" number=5.48

Please turn your attention to the following entry.
Fill in the blank: the reported pEC50 of "COc1cc(F)c(-c2cnc(NCC(=O)O)nc2)cc1C(=O)N[C@@H]1[C@H]2CC[C@H](C2)[C@@H]1C(=O)Nc1cccc(S(=O)(=O)C(F)(F)F)c1" is ____.
6.89
